Target: T1, soluble human insulin receptor-immunoglobulin heavy chain chimera (human, UniProt P06213 28-956)
T1 construct: extracellular domain; Heterotetramer; also called IR; sIR-Fc; not shown: immunoglobulin heavy chain constant domains replacing the transmembrane and intr
Protocol Description: phage ELISA ratios compared
A collection of binders and their measured IR/IGF-1R ratio comparison
Would you mind answering with just the numeric figure?

Take a look at these entries with their results.
>>> measured("VERSASSQDGNFYDWFVVQIR [A6S-2-D1-IR]")
0.4
>>> measured("LRRQAPVEENFYDWFVRQVSGDRVGG [H2CA-3-D7-IGFR]")
0.3
>>> measured("FYVQQWGHENFYDWFDRQVSQSGGAG [H2CA-4-F1-IGFR]")
0.3
>>> measured("DSVGDNFYQLLESLVGGHGVG [20E2B-3-D6-IGFR]")
0.1
>>> measured("GCAVVEEAERSRGDPFYHKLSELIQGC [B6Hα-3-E7-IR]")
0.2

Give its IR/IGF-1R ratio comparison value. Item: AETSVQVGWIRLQSVWPGEHWNTVDPFYHKLSELLRGSGA [B6L-4-D7-IR]
0.3

For QAVQPGFHEEFYDWFVRQVSTGVGGG [H2CA-4-H4-IGFR] then?
0.2

For RFSTDGFYQYLLALVGGGPVG [20E2B-1-A11-IGFR] then?
0.1

For RGCNDDGGKGWSDDPFYHKLSELICGG [B6Hα-1-A2-IR] then?
0.1

For TLDGGSFEEQFYDWFVRQLSYRTNPD [H2CA-4-G11-IGFR] then?
0.3

For IWATGDFYRLLSQLVMGRVGT [20E2B-2-B8-IGFR] then?
0.1
